Each recorded value in this set is attributed to patent US20130045952A1.

# subject.of.test: His6-PYR1 / biotin-HAB1 (Arabidopsis thaliana, UniProt O49686)
# Construct: not expressly for PYR1)
# Sequence (O49686 1-191): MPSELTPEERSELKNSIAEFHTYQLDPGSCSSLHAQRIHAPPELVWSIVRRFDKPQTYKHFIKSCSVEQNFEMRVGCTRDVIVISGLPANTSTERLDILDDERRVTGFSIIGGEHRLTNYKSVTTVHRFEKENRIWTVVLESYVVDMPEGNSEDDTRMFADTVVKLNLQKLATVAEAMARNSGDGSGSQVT
# Sequence (Q9CAJ0 172-511 partner limits assumed): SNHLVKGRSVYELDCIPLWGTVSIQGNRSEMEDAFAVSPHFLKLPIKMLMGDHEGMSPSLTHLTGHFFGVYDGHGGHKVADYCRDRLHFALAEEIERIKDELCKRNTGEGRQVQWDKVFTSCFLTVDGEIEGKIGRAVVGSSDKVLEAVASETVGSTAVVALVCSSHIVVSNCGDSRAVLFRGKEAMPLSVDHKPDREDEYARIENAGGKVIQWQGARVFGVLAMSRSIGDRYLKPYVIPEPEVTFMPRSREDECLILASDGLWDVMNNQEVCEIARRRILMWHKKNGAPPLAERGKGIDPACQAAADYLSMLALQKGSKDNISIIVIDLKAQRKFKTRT
# assay.details: AlphaScreen dose response, PYR1-HAB1 interaction
# test.parameters: 100 nM His6-PYR1, 100 nM biotin-PP2C, 0-100 μM agonist; from dose response curves
pEC50: −log10 of the molar value.
# Lookup of reported pEC50 keyed by entry

Use these answered entries as a reference point.
| compound | metric | result |
| --- | --- | --- |
| CCN1C(=O)c2cccc3c(S(=O)(=O)NC[C@@H]4CCCO4)ccc1c23 [Compound 11] | pEC50 | 5.00 to 5.30 |
| CCOC(=O)CNS(=O)(=O)c1ccc2c3c(cccc13)C(=O)N2CC [Compound 2] | pEC50 | 5.00 to 5.30 |
| O=C1Nc2ccc(S(=O)(=O)NCc3ccccn3)c3cccc1c23 [Compound 1] | pEC50 | 4.22 to 4.70 |

Q: Endpoint output: pEC50 of CSCCCC(NS(=O)(=O)c1ccc(Br)c2ccccc12)C(=O)O (centres unmarked) [Compound 3] . Value?
A: > 5.30

Q: Another compound to look at: O=S(=O)(NCc1ccccn1)c1ccc(Br)c2ccccc12 [Pyrabactin, pyrabactin]
A: > 5.30

###

# subject.of.test: ABI2 (Arabidopsis thaliana, UniProt O04719+O49686)
# Construct: ABI1 (residues 117-434) and ABI2 (residues 101-423) were expressed as H6Sumo fusion proteins; H6Sumo (N); made in house; host or cells: E. coli BL21
# Sequence (O04719 101-423 limits assumed, one chain of several): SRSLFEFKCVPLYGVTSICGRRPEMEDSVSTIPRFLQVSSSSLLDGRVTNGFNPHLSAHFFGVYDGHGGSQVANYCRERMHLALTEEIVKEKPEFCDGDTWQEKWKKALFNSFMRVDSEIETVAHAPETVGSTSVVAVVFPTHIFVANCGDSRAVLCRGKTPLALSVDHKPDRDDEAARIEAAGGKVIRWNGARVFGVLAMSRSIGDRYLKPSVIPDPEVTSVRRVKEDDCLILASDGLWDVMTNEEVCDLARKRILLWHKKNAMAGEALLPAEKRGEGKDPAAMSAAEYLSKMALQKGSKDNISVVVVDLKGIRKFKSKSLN
# assay.details: PP2C phosphatase activity assay, ABI2
# Type: biochemical
# test.parameters: 200 nM PP2C; SnRK2.6 phosphopeptide substrate; None = 100
metric: % Phosphatase Activity ABI2 (%)

Use these answered entries as a reference point.
| compound | output.unit | % Phosphatase Activity ABI2 |
| --- | --- | --- |
| O=C1Nc2ccc(S(=O)(=O)NCc3ccccn3)c3cccc1c23 [Compound 1] | % | 3.2 |
| O=S(=O)(NCc1ccccn1)c1ccc(Br)c2ccccc12 [Pyrabactin, pyrabactin] | % | 1.5 |

I = CCOC(=O)CNS(=O)(=O)c1ccc2c3c(cccc13)C(=O)N2CC [Compound 2]
II = CSCCCC(NS(=O)(=O)c1ccc(Br)c2ccccc12)C(=O)O (centres unmarked) [Compound 3]
Q: Returns the identifier with the smallest measured % Phosphatase Activity ABI2 among I and II . I would appreciate it if you answered with the label of your choice.
A: I
(I: 3.8%, II: 7.0%)
